Biological target: T1, mouse DLL4 overexpressed on cells (mouse, UniProt Q9JI71 27-686)
T1 construct: whole, on cells; also called CHO-mDLL4; CHO-mDII4
T1 sequence (Q9JI71 27-686): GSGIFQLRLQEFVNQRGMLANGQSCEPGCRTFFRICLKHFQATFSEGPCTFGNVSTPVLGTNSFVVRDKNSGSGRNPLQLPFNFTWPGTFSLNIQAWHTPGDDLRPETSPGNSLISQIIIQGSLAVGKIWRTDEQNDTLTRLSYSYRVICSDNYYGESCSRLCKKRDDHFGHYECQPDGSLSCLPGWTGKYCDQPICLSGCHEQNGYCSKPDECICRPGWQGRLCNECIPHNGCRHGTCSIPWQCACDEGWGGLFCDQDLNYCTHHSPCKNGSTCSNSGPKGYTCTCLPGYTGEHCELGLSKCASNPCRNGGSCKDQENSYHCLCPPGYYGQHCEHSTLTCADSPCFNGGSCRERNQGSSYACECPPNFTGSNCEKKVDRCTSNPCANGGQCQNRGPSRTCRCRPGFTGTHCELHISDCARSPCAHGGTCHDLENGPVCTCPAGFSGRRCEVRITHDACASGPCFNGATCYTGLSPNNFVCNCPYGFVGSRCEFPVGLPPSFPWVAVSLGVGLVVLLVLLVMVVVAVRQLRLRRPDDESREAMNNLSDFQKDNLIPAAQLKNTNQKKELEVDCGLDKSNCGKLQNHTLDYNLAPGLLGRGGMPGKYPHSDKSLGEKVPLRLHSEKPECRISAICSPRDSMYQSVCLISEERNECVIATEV
Test: FMAT, labelled hNotch1-Fc on CHO-mDLL4, periplasmic extract
PROPERTY_LABEL: % inh (%)
Write the answer as a number in %, unit excluded.

Study these solved cases before continuing.
DLLBII80E08 (VHH) VHH: EVQLVESGGGLVQAGGSLTLSCAASGGTFTTYAMGWFRQAPGKEREFVAAVSRFGVSWDYADSVKGRFTISRDNTANTLKLRMNSLKADDTAVYYCAAGGRSFLPFVPAYWGQGTQVTVSS; 82
DLLBII104C04 (VHH) VHH: EVQLVESGGGLVQAGGSLRLSCAAAGSTFSSYVMGWYRQAPGKQRELVAHISTRGITYYADSVKGRFTISRDNAKNTMYLQMNSLKPEDTAVYYCNTRRNFLSNYWGQGTQVTVSS; 83
DLLBII58A11 (VHH) VHH: EVQLVESGGGLVQAGGSLRLSCTTSERTVSRYSMGWFRQAPGKEREAVATISWSGDSTYYADSVKGRFTISRDNTKNTLYLQIDSLKPEDTAVYYCVAKPNLKYGSYWPPRGYDYWGQGTQVTVSS; 73

Problem: Note % inh for the binder shown: DLLBII95F02 (VHH) VHH: EVQLVESGGGSVQAGGSLRLSCAASGRTFSSYAMGWFRQAPGKEREFVAAINWSGGYTYYADSVRGRFTISRDNAKNTVYLQMNSLKPEDTAVYYCAAPAPGSSGYEYDYWGQGTQVTVSS
Solution: 71
